- Tested on: NCI-H23 lung
- Assay protocol: NCI-60 one-dose screen, 48 h (100 = growth as untreated, 0 = no growth, -100 = all killed)
- Run parameters: 10 µM unless noted
Compounds without any hit were thinned out: in the full panel of roughly 83,000, 20% have a hit.
Measurement kind: growth (%)
Just the number in %, nothing appended.

[[record]]
structure = "Cc1ccc(S(=O)(=O)N/N=C/C2(c3ccccc3)CC2)cc1"
tested_target = "NCI-H23 lung"
reading = 101

[[record]]
structure = "NC(=O)C1(Nc2ccc(Br)cc2)CCCC1"
tested_target = "NCI-H23 lung"
reading = 97.5


[Q] growth for COc1ccc(-c2nc(NN)c3c(C)nn(-c4ccc(F)cc4)c3n2)cc1 ?
[A] 66.9

[Q] Item: Fc1cc2c(cc1Cl)N(c1ncnc3ccc(-c4cnc5cnccn45)cc13)CC2
[A] 83

[Q] Item: Cc1cccc(NC2=C(Cl)C(=O)c3nc(C)ccc3C2=O)c1
[A] -27.8

[Q] Item: Cc1cc(C)c(-c2c(N)cc(Br)cc2Br)c(N)c1
[A] 70.9

* * *

- Test system: MDA-MB-231 breast
- Assay protocol: NCI-60 one-dose screen, 48 h
- Run parameters: 10 µM unless noted
Compounds without any hit were thinned out: in the full panel of roughly 83,000, 20% have a hit. Activity calls are given as the source filed them. How the source made its calls: active means growth percent below 10; inactive means the rest.
Respond only with the outcome that fits, drawn from active, inactive

[[record]]
molecule = "COc1c(C2CC(=O)Nc3c2c(C)nn3-c2nc3ccccc3[nH]2)cc2c(c1OC)OCO2 (centres undefined)"
assigned_class = "inactive"

[[record]]
molecule = "Cc1ccc2c(-c3cc(-c4ccccc4)nc(N)c3C#N)cc(=O)oc2c1"
assigned_class = "inactive"


[Q] Name the outcome recorded for O=c1c2cccc(Cl)c2sc2c(NCCCNCCO)nc3ccccc3c12 in the assay.
[A] active

[Q] Item: O=c1c2cccc(F)c2sc2c(NCCCNCCO)nc3ccccc3c12
[A] active

* * *

growth overview
- Test system: CCRF-CEM leukemia
- Assay protocol: NCI-60 one-dose screen, 48 h (100 = growth as untreated, 0 = no growth, -100 = all killed)
- Run parameters: 10 µM unless noted
This is part of a sample that, as a whole, favours compounds with a hit. Of some 83,000 tested, about 20% had one in any assay.
Just the number in %, nothing appended.

[Q] // fetch CCRF-CEM leukemia growth for COc1cc(C(=O)N2N=C(c3ccc(S(C)(=O)=O)cc3)CC2c2ccco2)cc(OC)c1OC (centres undefined)
[A] 42

[Q] Item: COc1ccc(-c2csc(NC(=O)N3CCN(c4cc5c(cc4F)c(=O)c(C(=O)O)cn5C4CC4)CC3)n2)cc1
[A] 7.96

[Q] Item: Cc1cc(O)c(C2=NN(c3ccc(S(N)(=O)=O)cc3)C(/C=C/c3ccccc3)C2)cc1Cl (centres undefined)
[A] 66.2

[Q] Item: COc1ccc(S(=O)(=O)n2cc(C3OC(c4cc(OC)c(OC)c(OC)c4)=NN3C(C)=O)c3ccccc32)cc1OC (centres undefined)
[A] 73.4

* * *

- Test system: SR leukemia
- Assay protocol: NCI-60 one-dose screen, 48 h
- Run parameters: 10 µM unless noted
Compounds without any hit were thinned out: in the full panel of roughly 83,000, 20% have a hit. Active and inactive are the calls of the source. Rule for the calls: active = growth percent below 10; inactive = the rest.
Respond only with the outcome that fits, drawn from T (active), F (inactive)

[[record]]
compound = "[O-][n+]1c2ccccc2[n+]([O-])c2c3ccccc3[nH]c21"
assigned_class = "F"


[Q] Name the outcome recorded for CCCCCCNC(=O)Oc1ccc(/C(=C(\C)c2ccc(Cl)cc2)c2ccc(OCCN(CC)CC)cc2)cc1 in the assay.
[A] T

* * *

- Test system: SN12C renal
- Assay protocol: NCI-60 one-dose screen, 48 h (100 = growth as untreated, 0 = no growth, -100 = all killed)
- Run parameters: 10 µM unless noted
About 83,000 compounds went through this panel and 20% of them were active in at least one assay; those are over-represented in the sample as a whole.
We use 90% as the dividing line for growth: on or above the line is yes (1), below is no (0).

[[record]]
compound = "Clc1ccc(C(/C=C/c2sc(Cl)nc2Cl)=N/Nc2cc(Cl)cc(Cl)c2)cc1"
assigned_class = "yes (1)"

[[record]]
compound = "NC1CCN(c2nc(Nc3cccc(C(F)(F)F)c3)c3c(=O)[nH]ccc3n2)CC1"
assigned_class = "no (0)"

[[record]]
compound = "c1cc2nc(-c3cn[nH]c3)c3c(c2cc1-c1cn[nH]c1)C1CCC3C1 (stereo not given)"
assigned_class = "no (0)"

[[record]]
compound = "Cc1cccc2c1S/C(=C/c1ccc([N+](=O)[O-])cc1)C2=O"
assigned_class = "yes (1)"

[[record]]
compound = "O=C(CS(=O)c1oc(-c2cccs2)nc1S(=O)(=O)c1ccc(Br)cc1)c1ccccc1 (stereo not given)"
assigned_class = "yes (1)"

[[record]]
compound = "Cc1cc(=O)oc2cc(OC(=O)CN3CCN(C)CC3)ccc12"
assigned_class = "yes (1)"

[[record]]
compound = "COc1ccc(C(=O)N=Nc2c(O)n(C)c3ccccc23)cc1"
assigned_class = "yes (1)"

[[record]]
compound = "CCN(CC)CCNC(=O)c1cn2ncnc(Oc3ccc(NC(=O)Nc4ccc(Cl)c(C(F)(F)F)c4)cc3)c2c1C"
assigned_class = "no (0)"

[[record]]
compound = "CCN(CC)CCCNc1nc2ccccc2c2c(=O)c3cc(Cl)ccc3sc12"
assigned_class = "no (0)"

[[record]]
compound = "N[C@@H](Cc1ccccc1)[C@@H](O)C(=O)NCc1ccc(F)cc1"
assigned_class = "yes (1)"


[Q] Please indicate if the recorded growth for CCc1ccc(Oc2c(-c3ccc(OCc4ccc(Cl)cc4)cc3O)n[nH]c2C(F)(F)F)cc1 meets or exceeds 90%.
[A] no (0)

[Q] Item: Cn1cc(-c2ccc3cc(-c4ccc(CC(=O)Nc5cc(C(C)(C)C)nn5C)cc4)cnc3c2)cn1
[A] no (0)

[Q] Item: COc1ccc(-c2nc3sc(-c4ccccc4)cn3n2)cc1
[A] no (0)

[Q] Item: COc1ccc(/C=C/c2c(C(=O)/C=C/c3ccc(C(F)(F)F)cc3)c(C)nc3ccccc23)cc1
[A] no (0)

[Q] Item: COc1cc(C(=O)/C=C/c2c(Cl)nc3sccn23)cc(OC)c1OC
[A] no (0)

[Q] Item: COc1ccc(OC)c(/C=C2\Oc3cc(OCCN4CCC(Cc5ccccc5)CC4)ccc3C2=O)c1
[A] no (0)

[Q] Item: N#C/C(=C\c1ccc(F)cc1)n1nc2cccc(F)c2n1
[A] no (0)

* * *

- Tested on: M14 melanoma
- Assay protocol: NCI-60 one-dose screen, 48 h (100 = growth as untreated, 0 = no growth, -100 = all killed)
- Run parameters: 10 µM unless noted
This is part of a sample that, as a whole, favours compounds with a hit. Of some 83,000 tested, about 20% had one in any assay.
growth overview
Just the number in %, nothing appended.

[[record]]
compound = "COc1cc(CCCO)c(OC)c(OC)c1OC"
reading = 110

[[record]]
compound = "O=C(Nc1ccc(OS(=O)(=O)c2ccc(F)cc2)cc1)c1ccc(Cl)cc1"
reading = 98

[[record]]
compound = "COc1ccc(-n2c(N)c(-c3nc4ccccc4[nH]3)cc(C#N)c2=O)cc1"
reading = 109

[[record]]
compound = "NC[C@@H]1O[C@H](O[C@@H]2[C@@H](CO)OC(O[C@@H]3[C@@H](O)[C@H](N)C[C@H](N)[C@H]3OC3O[C@H](CN)[C@@H](O)[C@H](O)[C@H]3N)[C@@H]2O)[C@H](N)[C@@H](O)[C@@H]1O (stereo not given in full)"
reading = 104

[[record]]
compound = "O=c1[nH]c2c(ccc3cnccc32)c2c1CCC2"
reading = -77

[[record]]
compound = "Cn1cc(C(=O)c2nc(-c3cn(C)c4ccc(F)cc34)no2)c2cc(F)ccc21"
reading = 100

[[record]]
compound = "CSc1ncccc1C(=O)OCC(=O)Nc1oc(C)c2c(C)n[nH]c(=O)c12"
reading = 110

[[record]]
compound = "COc1ccc(/C=N/Nc2cc(=O)[nH]c3ccc(Cl)cc23)cc1"
reading = 54.8

[[record]]
compound = "O=c1c2cccc(F)c2sc2c(NCCCNCCO)nc3ccccc3c12"
reading = -58.5


// switching to the query compound
[Q] growth for COc1ccc(N)c(N)c1 ?
[A] 101

* * *

- Tested on: SR leukemia
- Assay protocol: NCI-60 one-dose screen, 48 h (100 = growth as untreated, 0 = no growth, -100 = all killed)
- Run parameters: 10 µM unless noted
The panel holds about 83,000 compounds, 20% with a hit somewhere; the sample as a whole holds those more often.
Measurement kind: growth (%)
Just the number in %, nothing appended.

Reference set, count: 5
[[record]]
compound = "O=c1c2cc(F)ccc2sc2c(N3CCCCC3)nc3ccccc3c12"
measurement_kind = "growth"
reading = 121

[[record]]
compound = "COC1=C(C)C(=O)c2c(c(CCCl)c3n2CCC3OC(C)=O)C1=O (stereo not given)"
measurement_kind = "growth"
reading = 1.94

[[record]]
compound = "CCc1ccc(Oc2c(-c3ccc(OCc4ccc(Cl)cc4)cc3O)nn(C)c2C(F)(F)F)cc1"
measurement_kind = "growth"
reading = -26.4

[[record]]
compound = "CCOc1cccc(NC2=C(Br)C(=O)C(C)=C(C)C2=O)c1"
measurement_kind = "growth"
reading = 74.7

[[record]]
compound = "CS(=O)(=O)Nc1cc(-c2ccc3ncnc(Nc4cccc(Cl)c4F)c3c2)cnc1Cl"
measurement_kind = "growth"
reading = 43.5


[Q] growth for NCCOc1ncccc1/C=C1\C2C=CC=CC2C2C=CC(F)=CC12 (stereo not given) ?
[A] 0.916

[Q] Item: C(=N/Nc1ncnc2nc[nH]c12)/c1ccccn1
[A] 25.7

[Q] Item: COc1cccc(-c2nc(-c3ccc(NC(=O)OC(C)C)cc3)[nH]c2-c2ccnc(Br)c2)c1
[A] -2.3

[Q] Item: O=c1ccn(Cc2cn(-c3c4ccccc4nc4ccccc34)nn2)c(=O)[nH]1
[A] 38.8

[Q] Item: CCN(CC)CCNC(=O)c1cn2ncnc(Oc3ccc(NC(=O)Nc4ccc(Cl)c(C(F)(F)F)c4)cc3)c2c1C
[A] -56.4
